- targetOrSystem: WT (SEQ ID NO: 5) EcPhnD (Escherichia coli, UniProt P16682, N152C)
- Construct: made in house; host or cells: E. coli BL21 DE3
- Sequence (P16682 27-338 N152C): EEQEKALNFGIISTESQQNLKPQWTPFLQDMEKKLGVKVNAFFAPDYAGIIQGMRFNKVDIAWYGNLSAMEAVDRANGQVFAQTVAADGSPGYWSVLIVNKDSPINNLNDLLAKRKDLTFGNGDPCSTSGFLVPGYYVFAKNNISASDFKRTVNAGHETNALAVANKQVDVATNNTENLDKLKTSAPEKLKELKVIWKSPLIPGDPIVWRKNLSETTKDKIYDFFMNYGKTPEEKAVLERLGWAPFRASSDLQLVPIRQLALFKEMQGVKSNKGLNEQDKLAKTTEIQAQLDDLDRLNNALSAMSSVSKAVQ
- experimentDescription: biochemical
- Format: binding, E. coli
- settings: WT (SEQ ID NO: 5); read-out: WT Kd
readoutType: pKd
Numbers only, as −log10 of the molar value.

Enquiry: Which pKd is reported with WT (SEQ ID NO: 5) EcPhnD (Escherichia coli, UniProt P16682, N152C) for this entry: NCCP(=O)(O)O [2-Aminoethyl Phosphate (2-AEP), 2-Aminoethyl Phosphonate] ?
Return: 8.70

----------
- targetOrSystem: PND177NΔ (SEQ ID NO: 2) (Escherichia coli, UniProt P16682, E203N/N152C)
- Construct: made in house; host or cells: E. coli BL21 DE3
- Sequence (P16682 27-329 N152C/E203N): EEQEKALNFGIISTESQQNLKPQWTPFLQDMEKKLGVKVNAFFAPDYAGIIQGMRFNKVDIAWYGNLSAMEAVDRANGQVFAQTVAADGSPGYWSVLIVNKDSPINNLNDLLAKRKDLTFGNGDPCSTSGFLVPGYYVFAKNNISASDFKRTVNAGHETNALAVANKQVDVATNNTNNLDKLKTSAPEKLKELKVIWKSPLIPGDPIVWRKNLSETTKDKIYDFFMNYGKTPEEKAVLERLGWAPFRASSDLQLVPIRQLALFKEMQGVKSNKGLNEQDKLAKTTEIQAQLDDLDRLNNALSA
- experimentDescription: biochemical
- Format: binding, E. coli
readoutType: Kd (µM)
Answers are plain numbers, in µM.

Enquiry: Please give the measured Kd for this compound: O=C(O)CNCP(=O)(O)O [Glyphosate]
Return: 4.29
